Ref: ChEMBL document CHEMBL1201862

test system: HL-60; assay: NCI tumour cell line growth inhibition, 48 h
Calls of active or inactive are those of the source. No stated cut-off is given here; in the data, active = GI50 up to about 1.1 µM and inactive = higher.
Assign GI50 to each entry below.

Data request: Fill blank: measured GI50 of the compound Cc1ccc(C2(c3ccc(F)cc3)OC(=O)c3ccccc32)c(O)c1 (centres undefined) is ____.
Data returned: 14 µM (inactive)

Data request: Thanks! And Cc1cc(C)c2c(c1)C1=NCCN1C2(O)c1ccc(Cl)cc1 (centres undefined) ?
Data returned: 19.9 µM (inactive)

Data request: Thanks! And O=C(/C(=C/c1ccc(O)cc1)c1ccccc1)c1ccccc1 ?
Data returned: 13.6 µM (inactive)

Data request: Thanks! And O=C(NC(=S)Nc1ccc2c(c1)Sc1ccccc1O2)c1ccc([N+](=O)[O-])cc1 ?
Data returned: > 100 µM (inactive)
